System: Plasmodium falciparum Sir2 (PF13_0152, Sir2A)
Test: pfSir2 binders on small-molecule microarrays, primary screen, biochemical, small-molecule microarray, 635 nm fluorescence (AID 1098);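 also: score merges spot fluorescence intensity with its signal-to-noise ratio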
Settings: small-molecule microarray binding, fluorescence 635 nm; higher = more signal
Kindly supply the reported composite z-score values for the records listed here.
Answers are plain numbers.

# example entries with known answers
{"COMPOUND": "C=C(COC)/C(=C/C[C@@H](OC(C)=O)c1cccc(OCCO)c1)c1cc(C(=O)OC)ccc1OC", "VALUE TYPE": "composite z-score", "EXPERIMENTAL RESULT": 0.695}
{"COMPOUND": "Cc1ccccc1C(O)C1C=CC2C(=O)N(c3ccccc3)C(=O)C2N1Nc1ccc(C#N)cc1 (stereo unspecified)", "VALUE TYPE": "composite z-score", "EXPERIMENTAL RESULT": 1.56}
{"COMPOUND": "O=C/C=C/c1ccccc1Cl", "VALUE TYPE": "composite z-score", "EXPERIMENTAL RESULT": 1.67}
{"COMPOUND": "CN(C)CCCC[C@@H]1NC(=O)[C@@H]2C[C@H](C(=O)O)[C@H](c3ccc(O)cc3)N2C1=O", "VALUE TYPE": "composite z-score", "EXPERIMENTAL RESULT": 0.902}
{"COMPOUND": "CC(C)[Si](OCCCNS(=O)(=O)c1ccc(Br)cc1)(C(C)C)C(C)C", "VALUE TYPE": "composite z-score", "EXPERIMENTAL RESULT": 0.373}
{"COMPOUND": "CN(C)c1ccc(C(O)C2C=CC3C(=O)NC(=O)C3N2Nc2ccc(Cl)cc2Cl)cc1 (stereo unspecified)", "VALUE TYPE": "composite z-score", "EXPERIMENTAL RESULT": 0.189}
{"COMPOUND": "C=CC[C@]1(C(=O)O)N=C(c2ccc(OCCCO)cc2)O[C@H]1c1ccccc1", "VALUE TYPE": "composite z-score", "EXPERIMENTAL RESULT": 1.43}
{"COMPOUND": "CC(=O)NCCCC[C@@H]1NC(=O)[C@H]2C[C@@H](C(=O)NCCCCCCN(C)C)[C@@H](c3ccc(O)cc3)N2C1=O", "VALUE TYPE": "composite z-score", "EXPERIMENTAL RESULT": 1.04}

Report composite z-score for every entry below.
1. NC(=O)NCC#Cc1ccc2c(c1)[C@]1(C(=O)N2)[C@H](c2ccccc2OCCO)N2[C@H](c3ccccc3)[C@H](c3ccccc3)OC(=O)[C@H]2[C@@H]1C(=O)N1CCN(c2ncccn2)CC1
2. CO[C@@H]1COC(=O)[C@@H]2CCCN2C(=O)CC=C[C@@H](C)[C@H](OC)COC(=O)[C@@H]2CCCN2C(=O)CC=C[C@H]1C
3. CC(C)C[C@@H]1NC(=O)[C@H]2C[C@@H](C(=O)NCCCCCC[N+](C)(C)C)[C@@H](c3ccc(O)cc3)N2C1=O
4. C[C@@H]1CC[C@H]2C(=O)N3[C@@H](CC[C@@H](C)[C@@H]3c3cccc(N4CCOCC4)c3)C(=O)N2[C@H]1c1cccc(N2CCOCC2)c1

1: 0.722; 2: 1.29; 3: 1.46; 4: 1.15

Report composite z-score for every entry below.
1. O=C1OCC=C[C@H]2OC34C=CCN(Cc5ccccc5)C(=O)[C@H]3N(CCCCCO)C(=O)[C@@H]4[C@@H]12 (stereo partly specified)
2. CC(=O)NCCCC[C@@H]1NC(=O)[C@@H]2C[C@H](C(=O)NCCCCCCN(C)C)[C@H](c3ccc(O)cc3)N2C1=O
3. CCCN1C(=O)[C@@]2(CCS(=O)(=O)c3ccccc3)N=C(c3ccc(OCCCO)cc3)O[C@H]2c2ccccc21
4. C=CC[C@]1(C(=O)OC)N=C(c2ccc(OCCCO)cc2)O[C@H]1c1ccccc1CN=[N+]=[N-]

1. 1.41
2. 1.02
3. 0.915
4. 0.212
